ASSAY INFO: Half life period in phosphate buffer (0.08 M)
Format: ADME
// reported log10 half-life for each item listed
A difference of one corresponds to tenfold half-life; all values are log10 with half-life in h.

# count of solved cases: 7
>>> print(df.to_string())
                                   compound  observed_measurement
0     O=P(NCCCl)(NCCCl)OCCS(=O)(=O)c1ccccc1                  0.81
1  Cc1ccc(S(=O)(=O)CCOP(=O)(NCCCl)NCCCl)cc1                  1.08
2  CS(=O)(=O)CCOP(=O)(N(CCCl)CCCl)N(CCCl)CCCl                  0.86
3  O=[N+]([O-])c1ccc(S(=O)(=O)CCOP(=O)(NCCCl)NCCCl)cc1                 -1.10
4  Cc1ccc(S(=O)(=O)CCOP(N)(=O)N(CCCl)CCCl)cc1 (stereo not drawn)                  1.11
5  CS(=O)(=O)CC(OP(=O)(N(CCCl)CCCl)N(CCCl)CCCl)c1ccccc1 (stereo not drawn)                  0.26
6            CS(=O)(=O)CCOP(=O)(NCCCl)NCCCl                  0.81

Recall and state the measured log10 half-life for O=[N+]([O-])c1ccc(S(=O)(=O)CCOP(=O)(N(CCCl)CCCl)N(CCCl)CCCl)cc1 .
-0.16

---

Tested on: P388/CPA
ASSAY INFO: In vivo antitumor activity against P388/CPA leukemia (resistant) in mice measured by increase in life span after 200 mg/kg compound administration
Format: functional
SETUP CONDITIONS: Mus musculus
ENDPOINT: ILS at 200 mg/kg (%)
Note: unit % is implicit; provide only the numeric part.

In [3]: df
Out[3]:
                                   compound  unit_name  observed_measurement
0  O=[N+]([O-])c1ccc(S(=O)(=O)CCOP(=O)(NCCCl)NCCCl)cc1          %                    92
1  CS(=O)(=O)CC(OP(=O)(N(CCCl)CCCl)N(CCCl)CCCl)c1ccccc1 (stereo not drawn)          %                    20
2  O=[N+]([O-])c1ccc(S(=O)(=O)CCOP(=O)(N(CCCl)CCCl)N(CCCl)CCCl)cc1          %                    68
3            CS(=O)(=O)CCOP(=O)(NCCCl)NCCCl          %                    84
4  Cc1ccc(S(=O)(=O)CCOP(=O)(NCCCl)NCCCl)cc1          %                    12

Recall and state the measured ILS at 200 mg/kg for O=P(NCCCl)(NCCCl)OCCS(=O)(=O)c1ccccc1 .
28

Recall and state the measured ILS at 200 mg/kg for CS(=O)(=O)CCOP(=O)(N(CCCl)CCCl)N(CCCl)CCCl .
28

Recall and state the measured ILS at 200 mg/kg for Cc1ccc(S(=O)(=O)CCOP(N)(=O)N(CCCl)CCCl)cc1 (stereo not drawn) .
28

Data provenance is ChEMBL document CHEMBL1148371.
